Sourced from patent US11319324B2

- target: human P2X2/3 receptors (Homo sapiens, UniProt P56373+Q9UBL9)
- Construct: expressed in transfected cells; host or cells: human astrocytoma 1321N1 (1312N1 [sic])
- Sequence (P56373 whole entry): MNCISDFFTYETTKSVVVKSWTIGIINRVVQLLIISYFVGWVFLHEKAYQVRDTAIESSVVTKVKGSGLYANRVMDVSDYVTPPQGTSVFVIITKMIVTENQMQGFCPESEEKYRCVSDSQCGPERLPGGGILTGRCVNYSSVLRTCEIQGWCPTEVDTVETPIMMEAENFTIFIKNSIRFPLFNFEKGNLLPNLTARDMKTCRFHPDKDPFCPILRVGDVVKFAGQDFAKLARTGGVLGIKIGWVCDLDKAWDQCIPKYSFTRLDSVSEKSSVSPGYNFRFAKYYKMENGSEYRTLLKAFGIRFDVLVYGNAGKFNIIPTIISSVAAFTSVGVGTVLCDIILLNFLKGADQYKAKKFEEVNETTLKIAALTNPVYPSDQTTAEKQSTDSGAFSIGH
- Sequence (Q9UBL9 whole entry): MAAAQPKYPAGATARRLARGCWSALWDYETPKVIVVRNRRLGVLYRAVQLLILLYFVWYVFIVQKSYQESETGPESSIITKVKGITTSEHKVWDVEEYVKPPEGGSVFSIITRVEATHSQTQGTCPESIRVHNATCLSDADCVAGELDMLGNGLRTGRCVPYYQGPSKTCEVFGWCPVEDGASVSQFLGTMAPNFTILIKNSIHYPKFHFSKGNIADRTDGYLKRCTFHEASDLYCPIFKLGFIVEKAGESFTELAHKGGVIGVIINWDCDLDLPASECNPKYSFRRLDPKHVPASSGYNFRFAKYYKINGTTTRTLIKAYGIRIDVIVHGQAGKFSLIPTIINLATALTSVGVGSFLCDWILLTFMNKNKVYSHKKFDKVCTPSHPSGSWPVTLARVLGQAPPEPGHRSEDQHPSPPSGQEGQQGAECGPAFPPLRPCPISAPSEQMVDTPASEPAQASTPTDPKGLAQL
- assay.notes: Intracellular calcium measurement, antagonist activity at human P2X2/3 receptors (hP2X23 1321N1), Fluo8
- Assay type: cell-based
- test.settings: column 4); 1321N1 cells, human P2X2/3, Fluo8, agonist ATP at EC50; read-out: 4) hP2X2/3 IC50 [nM] (1321N1)
quantity.name: IC50 (nM)

Short answer for CCc1cc2n(CC(=O)Nc3ccc(F)cn3)c3c(c(=O)n2n1)CN(Cc1ccccn1)C3=O : IC50 was 3200

[P] CC(C)c1cc2n(CC(=O)Nc3ccc(F)cn3)c3c(c(=O)n2n1)CN(CC(C)(C)O)C3=O
[Q] CCc1cc2n(CC(=O)Nc3ccc(F)cn3)c3c(c(=O)n2n1)CN(C[C@H]1CN(C(=O)OC(C)(C)C)CCO1)C3=O
[R] CCc1cc2n(CC(=O)Nc3ccc(C)cn3)c3c(c(=O)n2n1)CN(CC1CCCO1)C3=O (stereo not shown)
Rank ascending by IC50. Sort the labels as requested; that list is your answer.
Q, R, P
(Q: 2350 nM, R: 7400 nM, P: 11500 nM)
